system name: recombinant rat GluN1/GluN2B (Rattus norvegicus, UniProt P35439+Q00960)
Construct: expressed in transfected cells; host or cells: Xenopus laevis oocytes (Ecocyte) injected with in vitro transcribed cRNA
measurement description: Two-electrode voltage-clamp (TEVC) recordings in Xenopus laevis oocytes, GluN1/GluN2B
Assay type: cell-based
recorded conditions: percentage of the initial glutamate (100 μM) and glycine (30 μM) current; read-out: EC50 (max.) (μM %) GluN2B: fitted maximum response
reported endpoint: Emax (%)

1) CCOc1ccc(OCC2c3ccc(OC(C)C)cc3CCN2C(=O)c2cccc(F)c2)cc1 (centres unmarked) [1180-87] : 152
2) CCOc1ccc(OC[C@@H]2c3ccc(OC(C)C)cc3CCN2C(=O)c2ccc(Cl)c(Cl)c2)cc1 [(S)-(−)-1180-103] : 163
3) COc1ccc(OC[C@@H]2c3ccc(OC(C)C)cc3CCN2C(=O)c2cccc(Cl)c2)cc1 [(S)-(−)-1180-55] : 307
4) CCOc1ccc(OCC2c3ccc(OC(C)C)cc3CCN2C(=O)c2cccc(C(F)(F)F)c2)cc1 (centres unmarked) [1180-92] : 122
5) CCOc1ccc(OC[C@@H]2c3ccc(OC(C)C)cc3CCN2C(=O)c2cccc(F)c2)cc1 [(S)-(−)-1180-87] : 206
6) CCOc1ccc(OC[C@@H]2c3ccc(OC(C)C)cc3CCN2C(=O)c2cccc(C(F)(F)F)c2)cc1 [(S)-(−)-1180-92] : 210
7) COc1ccc(OC[C@@H]2c3ccc(OC(C)C)cc3CCN2C(=S)c2cccc(Cl)c2)cc1 [(S)-(−)-1180-163] : 202
8) CCOc1ccc(OCC2c3ccc(OC(C)C)cc3CCN2C(=S)c2cccc(C(F)(F)F)c2)cc1 (centres unmarked) [1180-168] : 179

* * *

As shown below, each of these compounds has a reported EC50 value.
system name: recombinant rat GluN1/GluN2D (Rattus norvegicus, UniProt P35439+Q62645)
Construct: expressed in transfected cells; host or cells: Xenopus laevis oocytes (Ecocyte) injected with in vitro transcribed cRNA
measurement description: Two-electrode voltage-clamp (TEVC) recordings in Xenopus laevis oocytes, GluN1/GluN2D
Assay type: cell-based
recorded conditions: EC50 & Max Effect: 2D (μM)
reported endpoint: EC50 (µM)

1) COc1ccc(OCC2c3ccc(OC(C)C)cc3CCN2C(=O)c2cccc(Cl)c2)cc1 (centres unmarked) [1180-55] : 2.9
2) COc1ccc(OCC2c3ccc(OCc4ccccc4)cc3CCN2C(=O)c2cccc(Br)c2)cc1 (centres unmarked) [drawing 33 R1=Br R2=H R3=H R4=OBn R5=H] : 0.27

* * *

Form field: Emax (one value per entry).
system name: recombinant rat GluN1/GluN2D (Rattus norvegicus, UniProt P35439+Q62645)
Construct: expressed in transfected cells; host or cells: Xenopus laevis oocytes (Ecocyte) injected with in vitro transcribed cRNA
measurement description: Two-electrode voltage-clamp (TEVC) recordings in Xenopus laevis oocytes, GluN1/GluN2D
Type: cell-based
recorded conditions: maximum potentiation, response without modulator = 100%; read-out: GluN2D EC50 (μM)/Max %: Max %
reported endpoint: Emax (%)

1. CCOc1ccc(OCC2c3ccc(OC(C)C)cc3CCN2C(=S)Nc2cccc(Cl)c2)cc1 (centres unmarked) [1180-210] : 174
2. CCOc1ccc(OCC2c3ccc(OC(C)C)cc3CCN2C(=O)c2ccc(F)c(Cl)c2)cc1 (centres unmarked) [1180-144] : 135
3. CCOc1ccc(OCC2c3ccc(OC(C)C)cc3CCN2C(=S)c2cccc(Br)c2)cc1 (centres unmarked) [1180-156] : 130
4. CCOc1ccc(OCC2c3ccc(OC(C)C)cc3CCN2C(=S)c2cccc(Cl)c2)cc1 (centres unmarked) [1180-149] : 145
5. COc1ccc(OCC2c3ccc(N(C)C)cc3CCN2C(=S)c2cccc(Cl)c2)cc1 (centres unmarked) [1180-167] : 127
6. COc1ccc(OCC2c3ccc(OC(C)C)cc3CCN2C(=S)c2cccc(F)c2)cc1 (centres unmarked) [1180-166] : 200
7. COc1ccc(OCC2c3ccc(N(C)C)cc3CCN2C(=O)c2cccc(Cl)c2)cc1 (centres unmarked) [1180-104] : 349
8. COc1ccc(OCC2c3ccc(OC(C)C)cc3CCN2C(=O)c2cccc(F)c2)cc1 (centres unmarked) [1180-140] : 521

* * *

// EC50 lookup, one value per entry
system name: recombinant rat GluN1/GluN2C (Rattus norvegicus, UniProt Q00961)
Construct: expressed in transfected cells; host or cells: Xenopus laevis oocytes (Ecocyte) injected with in vitro transcribed cRNA
Sequence (Q00961 20-1237, other chains not shown): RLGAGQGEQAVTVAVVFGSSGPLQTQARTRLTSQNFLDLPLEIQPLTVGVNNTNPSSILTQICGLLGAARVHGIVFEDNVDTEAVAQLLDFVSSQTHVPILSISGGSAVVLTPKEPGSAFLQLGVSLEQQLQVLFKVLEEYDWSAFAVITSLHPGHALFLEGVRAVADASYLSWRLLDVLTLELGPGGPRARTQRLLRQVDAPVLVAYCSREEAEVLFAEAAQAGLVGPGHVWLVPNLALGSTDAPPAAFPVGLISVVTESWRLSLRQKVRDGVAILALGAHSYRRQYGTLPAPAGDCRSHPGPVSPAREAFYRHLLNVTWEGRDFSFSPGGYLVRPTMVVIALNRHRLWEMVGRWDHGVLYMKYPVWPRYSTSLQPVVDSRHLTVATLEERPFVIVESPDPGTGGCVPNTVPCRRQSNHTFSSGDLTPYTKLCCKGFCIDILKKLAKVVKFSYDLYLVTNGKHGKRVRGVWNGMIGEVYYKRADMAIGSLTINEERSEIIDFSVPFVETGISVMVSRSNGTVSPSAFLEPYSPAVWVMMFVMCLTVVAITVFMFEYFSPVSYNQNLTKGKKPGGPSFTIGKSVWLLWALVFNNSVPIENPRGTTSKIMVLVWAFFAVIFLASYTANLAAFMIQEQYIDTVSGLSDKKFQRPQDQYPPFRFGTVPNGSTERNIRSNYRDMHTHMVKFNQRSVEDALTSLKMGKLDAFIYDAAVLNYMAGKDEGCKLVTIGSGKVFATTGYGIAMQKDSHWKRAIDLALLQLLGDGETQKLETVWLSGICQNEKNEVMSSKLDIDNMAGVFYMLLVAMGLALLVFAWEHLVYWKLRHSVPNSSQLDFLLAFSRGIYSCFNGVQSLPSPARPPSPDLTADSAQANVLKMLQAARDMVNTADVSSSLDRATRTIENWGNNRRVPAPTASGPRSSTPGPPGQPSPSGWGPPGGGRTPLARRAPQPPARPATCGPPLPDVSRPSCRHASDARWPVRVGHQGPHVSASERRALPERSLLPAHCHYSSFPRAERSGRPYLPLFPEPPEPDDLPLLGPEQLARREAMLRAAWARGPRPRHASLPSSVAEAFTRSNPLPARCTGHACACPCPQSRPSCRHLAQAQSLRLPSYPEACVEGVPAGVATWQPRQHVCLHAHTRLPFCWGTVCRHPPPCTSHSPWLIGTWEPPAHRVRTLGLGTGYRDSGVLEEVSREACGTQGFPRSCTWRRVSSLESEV
measurement description: Two-electrode voltage-clamp (TEVC) recordings in Xenopus laevis oocytes, GluN1/GluN2C
Assay type: cell-based
recorded conditions: untitled tables after drawing 25 and drawing 36; read-out: EC50 (μM) GluN2C
reported endpoint: EC50 (µM)

1) COc1ccc(OCC2c3ccc(OC)cc3CCN2C(=O)C=C(C)C(F)(F)F)cc1 (centres unmarked) : 15
2) COc1ccc(OCC2c3ccc(OC)cc3CCN2C(=O)C=CC(F)(F)F)cc1 (centres unmarked) : 7

* * *

system name: recombinant rat GluN1/GluN2C (Rattus norvegicus, UniProt P35439+Q00961)
Construct: expressed in transfected cells; host or cells: Xenopus laevis oocytes (Ecocyte) injected with in vitro transcribed cRNA
Sequence (Q00961 20-1237, other chains not shown): as above
measurement description: Two-electrode voltage-clamp (TEVC) recordings in Xenopus laevis oocytes, GluN1/GluN2C
Type: cell-based
recorded conditions: untitled tables after drawing 25 and drawing 36; read-out: EC50 (μM) GluN2C
// boundary case: EC50 equal to 3 µM maps to Not met; strictly smaller maps to Met

1. COc1ccc(OCC2c3ccc(OC)cc3CCN2C(=O)c2ccc(Cl)s2)cc1 (centres unmarked) : Met
2. COc1ccc(OCC2c3ccc(OC)cc3CCN2C(=O)c2ccc(Cl)o2)cc1 (centres unmarked) : Met
3. CC(C)Oc1ccc(OCC2c3ccc(OC(C)C)cc3CCN2C(=S)c2cccc(Cl)c2)cc1 (centres unmarked) : Met
4. COc1ccc(OCC2c3ccc(OC)cc3CCN2C(=O)CCCC(F)(F)F)cc1 (centres unmarked) : Not met
5. COc1ccc(OCC2c3ccc(OC)cc3CCN2C(=O)c2coc(Cl)n2)cc1 (centres unmarked) : Not met

* * *

system name: recombinant rat GluN1/GluN2B (Rattus norvegicus, UniProt P35439+Q00960)
Construct: expressed in transfected cells; host or cells: Xenopus laevis oocytes (Ecocyte) injected with in vitro transcribed cRNA
measurement description: Two-electrode voltage-clamp (TEVC) recordings in Xenopus laevis oocytes, GluN1/GluN2B
Assay type: cell-based
recorded conditions: percentage of the initial glutamate (100 μM) and glycine (30 μM) current; read-out: EC50 (max.) (μM %) GluN2B: fitted maximum response
Outcome: 1.0 for Emax of at least 200%; 0.0 for anything lower.

1. COc1ccc(OCC2c3ccc(OC(C)C)cc3CCN2C(=O)c2cccc(Cl)c2)cc1 (centres unmarked) : 1.0
2. CCOc1ccc(OC[C@H]2c3ccc(OC(C)C)cc3CCN2C(=S)c2cccc(C(F)(F)F)c2)cc1 [(R)-(+)-1180-168] : 0.0
3. CCOc1ccc(OC[C@@H]2c3ccc(OC(C)C)cc3CCN2C(=S)c2cccc(F)c2)cc1 [(S)-(−)-1180-154] : 1.0
4. CCOc1ccc(OCC2c3ccc(OC(C)C)cc3CCN2C(=O)c2ccc(Cl)c(Cl)c2)cc1 (centres unmarked) : 0.0
5. COc1ccc(OC[C@H]2c3ccc(OC(C)C)cc3CCN2C(=O)c2cccc(Cl)c2)cc1 [(R)-(+)-1180-55] : 0.0

* * *

system name: recombinant rat GluN1/GluN2D (Rattus norvegicus, UniProt Q62645)
Construct: expressed in transfected cells; host or cells: Xenopus laevis oocytes (Ecocyte) injected with in vitro transcribed cRNA
Sequence (Q62645 28-1323, other chains not shown): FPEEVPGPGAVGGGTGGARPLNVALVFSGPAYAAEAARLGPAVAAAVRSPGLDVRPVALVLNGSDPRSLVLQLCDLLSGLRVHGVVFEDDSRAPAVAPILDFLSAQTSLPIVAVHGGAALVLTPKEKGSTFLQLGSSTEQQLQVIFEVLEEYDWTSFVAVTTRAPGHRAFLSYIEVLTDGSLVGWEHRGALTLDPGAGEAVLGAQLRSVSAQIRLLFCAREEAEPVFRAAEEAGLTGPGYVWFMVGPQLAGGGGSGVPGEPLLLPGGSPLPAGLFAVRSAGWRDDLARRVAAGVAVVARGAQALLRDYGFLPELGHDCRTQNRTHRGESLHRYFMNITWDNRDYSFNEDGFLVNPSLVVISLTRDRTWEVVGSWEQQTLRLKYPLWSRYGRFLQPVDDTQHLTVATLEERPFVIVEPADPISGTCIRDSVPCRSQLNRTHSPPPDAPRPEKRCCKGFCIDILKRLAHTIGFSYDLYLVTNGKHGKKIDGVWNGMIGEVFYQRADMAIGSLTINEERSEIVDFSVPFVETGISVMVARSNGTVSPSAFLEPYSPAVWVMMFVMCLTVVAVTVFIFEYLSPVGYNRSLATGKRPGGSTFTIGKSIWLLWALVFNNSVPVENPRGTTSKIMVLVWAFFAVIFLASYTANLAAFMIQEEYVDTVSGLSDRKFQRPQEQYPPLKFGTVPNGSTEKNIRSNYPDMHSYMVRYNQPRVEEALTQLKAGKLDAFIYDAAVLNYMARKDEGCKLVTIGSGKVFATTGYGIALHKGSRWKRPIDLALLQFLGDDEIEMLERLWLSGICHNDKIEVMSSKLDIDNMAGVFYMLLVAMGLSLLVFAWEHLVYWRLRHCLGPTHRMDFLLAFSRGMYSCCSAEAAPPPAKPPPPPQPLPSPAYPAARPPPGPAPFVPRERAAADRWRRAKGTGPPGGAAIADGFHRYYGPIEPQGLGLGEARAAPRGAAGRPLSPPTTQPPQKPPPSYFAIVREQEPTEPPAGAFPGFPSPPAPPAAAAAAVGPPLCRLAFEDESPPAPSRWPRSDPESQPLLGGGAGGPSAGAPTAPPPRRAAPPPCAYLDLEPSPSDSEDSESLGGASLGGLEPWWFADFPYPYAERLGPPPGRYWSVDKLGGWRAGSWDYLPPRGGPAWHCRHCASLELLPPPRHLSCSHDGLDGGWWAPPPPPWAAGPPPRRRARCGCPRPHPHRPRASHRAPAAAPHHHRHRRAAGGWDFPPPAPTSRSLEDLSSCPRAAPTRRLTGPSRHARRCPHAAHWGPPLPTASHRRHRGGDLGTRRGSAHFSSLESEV
measurement description: Two-electrode voltage-clamp (TEVC) recordings in Xenopus laevis oocytes, GluN1/GluN2D
Type: cell-based
recorded conditions: at 30 µM
reported endpoint: GluN2D response % at 30 µM (% at 30)

1. COc1ccc(OCC2c3ccc(OC)cc3CCN2C(=O)c2cnc(Cl)s2)cc1 (stereo not shown) [1180-241] : 131
2. CC=CCC(=O)N1CCc2cc(OC)ccc2C1COc1ccc(OC)cc1 (stereo not shown) [1180-235] : 222

* * *

This listing pairs compounds with measured EC50.
system name: recombinant rat GluN1/GluN2C (Rattus norvegicus, UniProt Q00961)
Construct: expressed in transfected cells; host or cells: Xenopus laevis oocytes (Ecocyte) injected with in vitro transcribed cRNA
measurement description: Two-electrode voltage-clamp (TEVC) recordings in Xenopus laevis oocytes, GluN1/GluN2C
Type: cell-based
recorded conditions: read-out: EC50 & Max Effect: 2C
reported endpoint: EC50 (µM)

1. COc1ccc(OCC2c3cc(OC)c(OC)cc3CCN2C(=O)c2cccc(Cl)c2)cc1 (centres unmarked) [1390 (CIQ), reference compound] : 2.9
2. CCOc1ccc(OCC2c3ccc(OC4CCCC4)cc3CCN2C(=S)c2cccc(F)c2)cc1 (racemic) : 0.26
